The measured values listed here are drawn from patent US20230002367A1.

# System Tested: SMARCA2 (Homo sapiens)
# Construct: endogenous in cells
# Sequence (P51531 whole entry): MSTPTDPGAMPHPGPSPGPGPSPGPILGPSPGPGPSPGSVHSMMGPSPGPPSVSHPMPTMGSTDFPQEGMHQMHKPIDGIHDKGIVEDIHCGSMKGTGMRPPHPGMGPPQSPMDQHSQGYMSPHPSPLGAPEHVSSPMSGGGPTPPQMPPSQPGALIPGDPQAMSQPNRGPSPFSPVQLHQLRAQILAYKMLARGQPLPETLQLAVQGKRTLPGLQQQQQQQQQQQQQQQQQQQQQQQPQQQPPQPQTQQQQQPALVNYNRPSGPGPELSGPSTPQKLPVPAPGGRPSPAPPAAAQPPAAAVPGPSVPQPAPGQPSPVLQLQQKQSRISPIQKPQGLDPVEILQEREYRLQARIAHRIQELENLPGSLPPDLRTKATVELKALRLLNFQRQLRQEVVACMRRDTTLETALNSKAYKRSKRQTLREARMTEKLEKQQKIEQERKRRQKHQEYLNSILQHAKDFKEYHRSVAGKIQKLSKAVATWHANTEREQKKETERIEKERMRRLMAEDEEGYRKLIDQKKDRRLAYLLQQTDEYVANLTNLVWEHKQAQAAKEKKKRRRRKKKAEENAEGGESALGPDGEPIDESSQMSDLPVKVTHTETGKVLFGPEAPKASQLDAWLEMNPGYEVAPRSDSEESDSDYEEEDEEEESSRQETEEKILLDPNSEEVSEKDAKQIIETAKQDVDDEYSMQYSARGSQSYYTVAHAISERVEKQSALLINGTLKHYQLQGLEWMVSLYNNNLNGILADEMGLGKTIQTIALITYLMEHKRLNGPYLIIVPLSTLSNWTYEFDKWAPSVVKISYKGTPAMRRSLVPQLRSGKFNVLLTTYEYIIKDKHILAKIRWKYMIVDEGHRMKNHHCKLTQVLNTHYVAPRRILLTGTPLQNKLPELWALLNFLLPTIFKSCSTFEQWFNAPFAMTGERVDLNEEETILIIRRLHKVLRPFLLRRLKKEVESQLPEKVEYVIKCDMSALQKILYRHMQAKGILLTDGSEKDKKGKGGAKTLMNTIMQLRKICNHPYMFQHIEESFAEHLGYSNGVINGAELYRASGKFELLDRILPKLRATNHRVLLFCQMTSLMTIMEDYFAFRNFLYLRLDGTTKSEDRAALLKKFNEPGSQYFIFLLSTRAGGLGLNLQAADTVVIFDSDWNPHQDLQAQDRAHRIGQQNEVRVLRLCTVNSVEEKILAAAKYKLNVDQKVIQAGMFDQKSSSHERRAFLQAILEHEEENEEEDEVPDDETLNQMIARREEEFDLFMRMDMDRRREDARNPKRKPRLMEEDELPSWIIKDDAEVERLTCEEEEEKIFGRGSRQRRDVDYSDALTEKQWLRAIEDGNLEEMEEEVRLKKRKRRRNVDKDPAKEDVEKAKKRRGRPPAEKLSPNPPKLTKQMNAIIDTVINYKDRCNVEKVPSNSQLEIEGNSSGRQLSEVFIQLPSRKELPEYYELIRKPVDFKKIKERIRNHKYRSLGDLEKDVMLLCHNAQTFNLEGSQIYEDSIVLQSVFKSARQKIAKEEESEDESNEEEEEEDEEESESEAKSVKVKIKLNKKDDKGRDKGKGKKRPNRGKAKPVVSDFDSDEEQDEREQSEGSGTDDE
# Protocol Details: SMARCA2 HiBiT degradation assay (cellular)
# Assay type: cell-based
# Details: SMARCA2 HiBiT cells, luminescence readout, 11-point titration from 10 μM, 6 hours or 16 hours; read-out: HiBit A549 SMARCA2 IP
DC50 values for the compounds below.

Cc1ncsc1-c1ccc([C@H](C)NC(=O)[C@@H]2C[C@@H](O)CN2C(=O)[C@@H](NC(=O)CCCCCCCCCCC(=O)N2CCN(CCOc3cccc(CCOc4cc(-c5ccccc5O)nnc4N)c3)CC2)C(C)(C)C)cc1 [Example 59] | 305 nM

// DC50 lookup, key: Cc1ncsc1-c1ccc([C@H](C)NC(=O)[C@@H]2C[C@@H](O)CN2C(=O)[C@@H](NC(=O)CCCCCCCCCCC(=O)N2CCN(CCOc3ccc(N4CCCC(Oc5cc(-c6ccccc6O)nnc5N)C4)cc3)CC2)C(C)(C)C)cc1 (mixture of isomers) [Example 79]
78 nM
